Cited source for all entries: patent US6096874A

- Assay protocol: Biodistribution in mammary tumor-bearing rats primed with estradiol
- Format: in vivo, rat
- Experimental parameters: rat, tumor, iv, 1 h, read-out: Tumor uptake
Endpoint label: tissue uptake at 1 h (%ID/g)
Give your result in %ID/g as a bare value.

Query (compound): "CCN(CC)CCOc1ccc(/C(=C(/CCC[131I])c2ccccc2)c2ccccc2)cc1" ; field requested: tissue uptake at 1 h
0.3

* * *

- Assay protocol: in vivo
- Parameters: species or system rat
- Experimental parameters: rat, blood, iv; 24 h; read-out: Blood uptake
Endpoint label: tissue uptake at 24 h (%ID/g)
Give your result in %ID/g as a bare value.

Query (molecule): "CCN(CC)CCOc1ccc(/C(=C(/CCC[131I])c2ccccc2)c2ccccc2)cc1" ; field requested: tissue uptake at 24 h
0.001
